binders and their reported cGMP response rel. to 1 uM CNP22; 10 nM peptide, NIH3T3 cells
Study system: T1, NPR-B (natriuretic peptide receptor B), murine, expressed endogenously on NIH3T3 cells (murine, UniProt Q6VVW5 17-1047)
T1 sequence (looked up): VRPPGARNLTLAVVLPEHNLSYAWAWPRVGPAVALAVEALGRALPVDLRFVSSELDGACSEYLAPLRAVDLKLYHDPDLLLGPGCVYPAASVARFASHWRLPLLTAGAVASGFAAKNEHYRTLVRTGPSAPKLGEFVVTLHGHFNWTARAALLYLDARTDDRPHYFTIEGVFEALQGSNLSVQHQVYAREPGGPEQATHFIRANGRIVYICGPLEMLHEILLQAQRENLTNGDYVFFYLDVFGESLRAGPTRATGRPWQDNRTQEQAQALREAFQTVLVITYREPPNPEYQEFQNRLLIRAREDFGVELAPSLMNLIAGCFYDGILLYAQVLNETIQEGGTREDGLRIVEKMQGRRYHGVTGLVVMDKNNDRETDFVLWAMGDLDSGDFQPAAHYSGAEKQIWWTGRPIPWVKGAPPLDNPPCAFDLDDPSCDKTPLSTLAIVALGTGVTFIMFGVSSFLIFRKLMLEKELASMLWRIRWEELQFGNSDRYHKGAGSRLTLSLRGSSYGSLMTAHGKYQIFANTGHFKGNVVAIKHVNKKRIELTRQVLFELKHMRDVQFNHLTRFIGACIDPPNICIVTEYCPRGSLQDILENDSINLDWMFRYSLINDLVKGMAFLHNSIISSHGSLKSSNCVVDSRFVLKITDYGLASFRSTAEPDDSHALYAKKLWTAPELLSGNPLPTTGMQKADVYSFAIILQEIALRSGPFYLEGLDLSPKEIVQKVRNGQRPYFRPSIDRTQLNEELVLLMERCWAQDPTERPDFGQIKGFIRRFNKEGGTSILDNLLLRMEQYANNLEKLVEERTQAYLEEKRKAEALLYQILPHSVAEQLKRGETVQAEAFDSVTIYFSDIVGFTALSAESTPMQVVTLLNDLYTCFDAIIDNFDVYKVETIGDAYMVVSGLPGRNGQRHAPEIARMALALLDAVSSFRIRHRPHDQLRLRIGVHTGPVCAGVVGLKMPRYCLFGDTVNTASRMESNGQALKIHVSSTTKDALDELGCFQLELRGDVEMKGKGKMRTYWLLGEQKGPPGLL
Protocol summary: cell-based or functional assay
Where no end group is shown, it is not given here.
Measure: cGMP response rel. to 1 uM CNP22; 10 nM peptide, NIH3T3 cells

Binder	Result
GQPREPQVYTLPPSGLSKGCFGLKLDRIGSMSGLGC [GQPREPQVYTLPPS-CNP22 (IgG1(Fc) fragment)]	23 rel. to 1 uM CNP22 (100)
QEHPNARKYKGANKKGLSKGCFGLKLDRIGSMSGLGC (ends and bridges not checked; cysteine pairing not given here) [QEHPNARKYKGANKK-CNP22 (CNP37)]	43 rel. to 1 uM CNP22 (100)
GANRRGLSRGCFGLKLDRIGSMSGLGC [GANRR-CNP22, K4R]	59 rel. to 1 uM CNP22 (100)
GQEHPNARKYKGANKKGLSKGCFGLKLDRIGSMSGLGC (ends and bridges not checked; cysteine pairing not given here) [GQEHPNARKYKGANKK-CNP22 (Gly-CNP37)]	50 rel. to 1 uM CNP22 (100)
DLRVDTKSRAAWARGLSKGCFGLKLDRIGSMSGLGC [DLRVDTKSRAAWAR-CNP22]	34 rel. to 1 uM CNP22 (100)
GERAFKAWAVARLSQGLSKGCFGLKLDRIGSMSGLGC [GERAFKAWAVARLSQ-CNP22 (HSA fragment)]	15 rel. to 1 uM CNP22 (100)
